measurement_notes: basal S. cerevisiae growth modulation, no modifier, primary screen, OD600, strain BY4716, 24 h, basal condition (AID 1173)
details: OD600, 24 h, higher = more signal, called active from +8 up or from −8 down
I'd be grateful if you could share measured z-score for these entries.
Reply: number alone, nothing else.

Sample COCCCNC(=O)[C@@]1(CCS(=O)(=O)c2ccccc2)N=C(c2ccc(OCCCO)cc2)O[C@H]1c1ccccc1CN=[N+]=[N-] ; z-score observed: -0.938

Sample CCN(CC)c1ccc(N2CC=CC34O[C@@H]5C=CCOC(=O)[C@@H]5[C@H]3C(=O)N(C(CO)C(C)C)[C@@H]4C2=O)cc1 (stereo partly drawn) ; z-score observed: 0.0588

Sample COCCCNC(=O)[C@@]1(C)c2ccccc2C(=O)N(Cc2cc(F)cc(C(F)(F)F)c2)[C@H]1c1ccc(CO)cc1 ; z-score observed: 0.416

Sample [N-]=[N+]=NCc1ccccc1C[C@@]1(C(=O)O)N=C(c2ccc(OCCCO)cc2)O[C@@H]1c1ccccc1 ; z-score observed: -3.34

Sample O=C(N1CCCCC1)[C@@]1(Cc2ccccc2)N=C(c2ccc(OCCCO)cc2)O[C@H]1c1ccccc1 ; z-score observed: -0.635

Sample O=C(NO)[C@]1(Cc2ccccc2)N=C(c2ccc(OCCCO)cc2)O[C@@H]1c1ccccc1 ; z-score observed: -2.78

Sample C=CCNC(=O)[C@H]1[C@@H]2C(=O)O[C@@H](c3ccccc3)[C@@H](c3ccccc3)N2[C@@H](c2ccc(OCCO)cc2)[C@]12C(=O)Nc1ccc(C#CCCO)cc12 ; z-score observed: -0.0378

Sample C=CC[C@]1(C(=O)N(C)C)N=C(c2ccc(OCCCO)cc2)O[C@H]1c1ccccc1CN=[N+]=[N-] ; z-score observed: -1.26

Sample COCCOC(=O)N1C(=O)[C@@]2(c3cc(C#CCCO)ccc31)[C@H](c1ccccc1OCCO)N1[C@H](c3ccccc3)[C@H](c3ccccc3)OC(=O)[C@H]1[C@@H]2C(=O)NC[C@H](O)c1ccccc1 ; z-score observed: -0.769

Sample O=C1O[C@H](c2ccccc2)[C@H](c2ccccc2)N2[C@H]1[C@@H](C(=O)NC[C@H](O)c1ccccc1)[C@]1(C(=O)Nc3ccc(C#CC4(O)CCCCCC4)cc31)[C@H]2c1ccc(O)cc1 ; z-score observed: -1.55

Sample C=CCN1C(=O)[C@@]2(O[C@@H](CCn3cc(CCO)nn3)[C@H]([Si](C)(C)c3ccc(OC)cc3)[C@H]2C)c2cc(N3C(=O)c4cccc5cccc3c45)ccc21 ; z-score observed: -1.2

Sample COc1ccc(C(=O)Nc2cccc(CN3C(=O)[C@@]4(O[C@@H](CCO)[C@H]([Si](C)(C)c5ccc(OC)cc5)[C@H]4C)c4ccccc43)c2)cc1 ; z-score observed: -3.58

Sample COC(=O)C(CC#Cc1ccc2c(c1)[C@]1(C(=O)N2)[C@H](c2ccccc2OCCO)N2[C@H](c3ccccc3)[C@H](c3ccccc3)OC(=O)[C@H]2[C@@H]1C(=O)N1CCCCCCC1)C(=O)OC ; z-score observed: 1.31

Sample COc1ccc([Si](C)(C)[C@@H]2[C@@H](CC(=O)N3CCC[C@H]3CO)O[C@]3(C(=O)N(Cc4ccc(I)cc4)c4ccccc43)[C@H]2C)cc1 ; z-score observed: -1.91

Sample O=C1c2ccccc2C(=O)c2cc([C@H]3Oc4ccccc4S(=O)(=O)N4CCC[C@@H]34)ccc21 ; z-score observed: -2.8

Sample C=C[C@H](OC)[C@@H](OC(=O)Nc1ccc(OC)cc1)c1ccc(OC)c(O)c1 ; z-score observed: -1.01

Sample COc1ccc([Si](C)(C)[C@@H]2[C@@H](CCn3cc(CCO)nn3)O[C@]3(C(=O)N(Cc4ccc(N5C(=O)c6cccc7cccc5c67)cc4)c4ccccc43)[C@H]2C)cc1 ; z-score observed: -0.456

Sample O=C(NC1CC1)[C@@H]1c2ccccc2C(=O)N(Cc2ccccc2C(F)(F)F)[C@H]1c1ccc(CO)cc1 ; z-score observed: -0.844

Sample C=CCC1(CC=C)C[C@H]2CO[C@H](c3ccc(OC)cc3)N2C1=O ; z-score observed: -4.05

Sample COc1ccc([Si](C)(C)[C@H]2[C@H](CC(=O)N(CCO)Cc3ccccc3)O[C@@]3(C(=O)N(Cc4ccc(N5CCOC5=O)cc4)c4ccccc43)[C@@H]2C)cc1 ; z-score observed: -0.693

Sample COC(=O)C1=CC(CCCO)=CC(C2CC2)N(Cc2cc3c(cc2Br)OCO3)C=C1C(=O)OC (stereo not drawn) ; z-score observed: -1.81

Sample CCCCCN1CC=CC23O[C@@H]4/C=C\CCC(C)OC(=O)C4[C@H]2C(=O)N(CCO)[C@@H]3C1=O (stereo partly drawn) ; z-score observed: -0.734

Sample Cc1ccc(N2C(=O)c3ccccc3[C@](C)(C(=O)NC3CC3)[C@@H]2c2ccc(CO)cc2)nc1 ; z-score observed: -1.76

Sample O=C1c2ccccc2[C@](Cc2ccccc2I)(C(=O)O)[C@H](c2ccc(CO)cc2)N1Cc1ccccc1Cl ; z-score observed: -2.78

Sample C=CC[C@@H](OC(=O)Nc1ccc(SC)cc1)c1ccc(OCCO)cc1 ; z-score observed: -5.16

Sample C=CCC(OC(C)=O)[C@@H]1[C@@H](N(Cc2cccc3ccccc23)C(=O)c2cccc3ccccc23)c2cc(OCCCO)ccc2N1C(=O)Cc1ccc(OC)cc1 (stereo partly drawn) ; z-score observed: -3

Sample C=CCN1C(=O)[C@]2(O[C@H](CCn3cc([C@H](O)c4ccccc4)nn3)[C@@H]([Si](C)(C)c3ccc(OC)cc3)[C@@H]2C)c2cc(N3CCOC3=O)ccc21 ; z-score observed: -0.506

Sample CC(C)C[C@@H]1NC(=O)[C@@H]2C[C@H](C(=O)NCCCCCNC(=O)CS)[C@H](c3cccc(OCCO)c3)N2C1=O ; z-score observed: -0.928
